# Target entity: HLA-B*08:01
# Method notes: IEDB peptide-MHC binding, purified MHC/competitive/radioactivity; bounds were set here for any values at or beyond the usual limits of such assays
# Condition set: source organism: Triticum aestivum
Flag rule - IC50 less than 0.2 µM flags class 1; the remaining entries get class 0.

// known answers, use as guide
Prompt line: # check: IC50 < 0.2 µM for VMRQQCCQQL
Response line: class 1

Prompt line: Is 0.2 µM strictly greater than the sequence's reported IC50? sequence: QGMHILLPL
Response line: class 1

Prompt line: Confirm or reject: IC50 of FPQQQRPFI lies strictly below 0.2 µM
Response line: class 1

Prompt line: I'd appreciate it if you could check whether LAMAMKIATA has IC50 smaller than 0.2 µM.
Response line: class 1

New cases:
Prompt line: In plain terms, does LLSPRGKEL come in under 0.2 µM for IC50?
Response line: class 1
